assayed-target: PDE-3A (Homo sapiens, UniProt Q14432)
Sequence (Q14432 whole entry): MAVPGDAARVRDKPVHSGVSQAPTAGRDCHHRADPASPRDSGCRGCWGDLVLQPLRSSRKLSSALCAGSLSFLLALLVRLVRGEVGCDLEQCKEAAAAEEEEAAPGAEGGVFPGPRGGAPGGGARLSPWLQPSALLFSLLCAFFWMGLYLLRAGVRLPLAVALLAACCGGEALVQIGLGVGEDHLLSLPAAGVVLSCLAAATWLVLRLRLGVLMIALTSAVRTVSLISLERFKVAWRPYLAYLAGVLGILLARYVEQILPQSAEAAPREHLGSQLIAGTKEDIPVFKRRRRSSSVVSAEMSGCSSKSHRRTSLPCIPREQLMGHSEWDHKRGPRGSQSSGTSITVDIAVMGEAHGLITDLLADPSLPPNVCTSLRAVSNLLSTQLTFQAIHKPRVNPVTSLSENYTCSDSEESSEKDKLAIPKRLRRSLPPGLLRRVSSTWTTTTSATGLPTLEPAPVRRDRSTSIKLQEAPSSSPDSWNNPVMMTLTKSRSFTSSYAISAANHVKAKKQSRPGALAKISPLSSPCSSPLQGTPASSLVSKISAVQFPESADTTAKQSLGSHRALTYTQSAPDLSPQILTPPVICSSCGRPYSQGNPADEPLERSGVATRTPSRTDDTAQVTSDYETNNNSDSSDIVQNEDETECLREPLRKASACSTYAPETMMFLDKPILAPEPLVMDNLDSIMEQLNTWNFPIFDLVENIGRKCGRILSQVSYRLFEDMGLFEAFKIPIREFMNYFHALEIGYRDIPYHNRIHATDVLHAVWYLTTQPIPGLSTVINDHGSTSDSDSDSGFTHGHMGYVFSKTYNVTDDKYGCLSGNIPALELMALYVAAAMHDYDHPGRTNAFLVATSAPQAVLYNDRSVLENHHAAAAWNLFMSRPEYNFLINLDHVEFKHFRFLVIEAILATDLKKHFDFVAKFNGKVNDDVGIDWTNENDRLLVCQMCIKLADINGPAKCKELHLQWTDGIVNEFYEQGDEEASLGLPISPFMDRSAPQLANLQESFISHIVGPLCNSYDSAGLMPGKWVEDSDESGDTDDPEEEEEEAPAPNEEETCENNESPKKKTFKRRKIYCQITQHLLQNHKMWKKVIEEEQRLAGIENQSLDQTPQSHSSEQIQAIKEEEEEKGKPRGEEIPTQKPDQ
measured-quantity: pIC50
Interpret pIC50 as the negative base-10 log of the concentration measured in mol/L.

Incoming: pIC50 of CCC1C(C)=NN=C(c2ccc(OC)c(OC)c2)c2cc(OC)c(OC)cc21 (racemic) [tofisopam] on PDE-3A (Homo sapiens, UniProt Q14432)?
Outgoing: 5.70

The reported measurements were obtained from paper PMC2993883.
